Measured solubility at 18 h, listed per entry for reference.
experimental protocol: Water solubility assay (pH 7.8 buffer)
Format: physicochemical
test parameters: pH 7.8
Numbered stars: 1 amine (or outer) side, 2 acyl side, 3 side chain; on linkers, the order of the positions; unused ones are H or OH. Square brackets hold non-standard residues; d marks the D form. Peptide text beside a SMILES is read from it. X10 = Cc1cccc(/C=C/C[C@@H](C)[C@@H](O)[C@H](C(=O)[*:2])N(C)[*:1])n1; X22 = C[C@H](Cc1nc2ccccc2[nH]1)[C@@H](O)[C@H](C(=O)[*:2])N(C)[*:1]; X20 = C[C@H](CCN1CCC(F)(F)CC1)[C@@H](O)[C@H](C(=O)[*:2])N(C)[*:1]; X3 = C[C@H](CCN1CC2CCC(C1)O2)[C@@H](O)[C@H](C(=O)[*:2])N(C)[*:1]; X31 = COCCN(C)CC[C@@H](C)[C@@H](O)[C@H](C(=O)[*:2])N(C)[*:1]; d(aThr) = C[C@@H](O)[C@@H](N)C(=O)O; NMeL = CN[C@@H](CC(C)C)C(=O)O; dNMeL = CN[C@H](CC(C)C)C(=O)O; dNMeV = CN[C@@H](C(=O)O)C(C)C; Hiv = CC(C)[C@H](O)C(=O)O; Sar = CNCC(=O)O

Below, each entry is followed by its recorded solubility at 18 h result.
| compound | solubility at 18 h |
| --- | --- |
| COCCN(C)CC[C@@H](C)[C@@H](O)[C@@H]1C(=O)N[C@H]([C@@H](C)O)C(=O)N(C)CC(=O)N(C)[C@@H](CC(C)C)C(=O)N[C@H](CC(C)C)C(=O)N(C)[C@H](CC(C)C)C(=O)N[C@H](C)C(=O)O[C@@H](C(C)C)C(=O)N(C)[C@H](CC(C)C)C(=O)N[C@H](CC(C)C)C(=O)N(C)[C@H](C(C)C)C(=O)N1C [Example 10] (cyclo([Hiv][dNMeL][dL][dNMeV][X31][d(aThr)][Sar][NMeL][dL][dNMeL][dA])) | > 100 µM |
| CC(C)C[C@@H]1C(=O)N[C@H](CC(C)C)C(=O)N(C)[C@H](C(C)C)C(=O)N(C)[C@H]([C@H](O)[C@H](C)CCN2CC3CCC(C2)O3)C(=O)N[C@H]([C@@H](C)O)C(=O)N(C)CC(=O)N(C)[C@@H](CC(C)C)C(=O)N[C@H](CC(C)C)C(=O)N(C)[C@H](CC(C)C)C(=O)N[C@H](C)C(=O)O[C@@H](C(C)C)C(=O)N1C [Example 22] (cyclo([Hiv][dNMeL][dL][dNMeV][X3][d(aThr)][Sar][NMeL][dL][dNMeL][dA])) | 25 to 50 µM |
| Cc1cccc(/C=C/C[C@@H](C)[C@@H](O)[C@@H]2C(=O)N[C@H]([C@@H](C)O)C(=O)N(C)CC(=O)N(C)[C@@H](CC(C)C)C(=O)N[C@H](CC(C)C)C(=O)N(C)[C@H](CC(C)C)C(=O)N[C@H](C)C(=O)O[C@@H](C(C)C)C(=O)N(C)[C@H](CC(C)C)C(=O)N[C@H](CC(C)C)C(=O)N(C)[C@H](C(C)C)C(=O)N2C)n1 [Example 14] (cyclo([Hiv][dNMeL][dL][dNMeV][X10][d(aThr)][Sar][NMeL][dL][dNMeL][dA])) | 10 to 25 µM |
| CC(C)C[C@@H]1C(=O)N[C@H](CC(C)C)C(=O)N(C)[C@H](C(C)C)C(=O)N(C)[C@H]([C@H](O)[C@H](C)CCN2CCC(F)(F)CC2)C(=O)N[C@H]([C@@H](C)O)C(=O)N(C)CC(=O)N(C)[C@@H](CC(C)C)C(=O)N[C@H](CC(C)C)C(=O)N(C)[C@H](CC(C)C)C(=O)N[C@H](C)C(=O)O[C@@H](C(C)C)C(=O)N1C [Example 24] (cyclo([Hiv][dNMeL][dL][dNMeV][X20][d(aThr)][Sar][NMeL][dL][dNMeL][dA])) | 25 to 50 µM |

Query compound follows.
Notebook: CC(C)C[C@@H]1C(=O)N[C@H](CC(C)C)C(=O)N(C)[C@H](C(C)C)C(=O)N(C)[C@H]([C@H](O)[C@H](C)Cc2nc3ccccc3[nH]2)C(=O)N[C@H]([C@@H](C)O)C(=O)N(C)CC(=O)N(C)[C@@H](CC(C)C)C(=O)N[C@H](CC(C)C)C(=O)N(C)[C@H](CC(C)C)C(=O)N[C@H](C)C(=O)O[C@@H](C(C)C)C(=O)N1C [Example 33] (cyclo([Hiv][dNMeL][dL][dNMeV][X22][d(aThr)][Sar][NMeL][dL][dNMeL][dA])) , solubility at 18 h read as 25 to 50 µM

From: patent US9382295B2
